B1: HDV Ribozyme (parent)
chain: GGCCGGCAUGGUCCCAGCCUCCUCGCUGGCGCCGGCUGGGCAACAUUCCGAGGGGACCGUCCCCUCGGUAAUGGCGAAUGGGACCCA

# Variants of: B1
# TEST_METHOD_NOTES: self-cleavage, relative activity (ratio to wild type); higher = more cleavage; co-transcriptional
QUANTITY: self-cleavage
Lab note: write the figure by itself, no unit.

C58U C86G; 0.895
G31U C41G; 0.0437
C66G U69A; 0.917
C30A A45U; 0.375
G17C G59U; 0.342
G11C U27C; 0.196
C36U A51U; 0.743
C57U G74A; 0.501

*Q* For the variant shown here, C33U U69G , give the reported self-cleavage.
*A* 0.807

*Q* For the variant shown here, A8G U60C , give the reported self-cleavage.
*A* 1.16

*Q* For the variant shown here, C36A G40C , give the reported self-cleavage.
*A* 0.102

*Q* For the variant shown here, C22G U60A , give the reported self-cleavage.
*A* 0.141

*Q* For the variant shown here, U69C A71G , give the reported self-cleavage.
*A* 0.974

The reported measurements were obtained from the RNAGym collection of RNA variant scans (doi:10.7554/elife.80360).
